# CD28 scFv signal per entry
# assay target: T1, anti-CD28 scFv (VH-linker 1-VL) (biotinylated (site not stated))
# T1 construct: Captured as biotinylated scFv on neutravidin coated plates in the phage ELISA
# T1 sequence (scFv, as listed by the source): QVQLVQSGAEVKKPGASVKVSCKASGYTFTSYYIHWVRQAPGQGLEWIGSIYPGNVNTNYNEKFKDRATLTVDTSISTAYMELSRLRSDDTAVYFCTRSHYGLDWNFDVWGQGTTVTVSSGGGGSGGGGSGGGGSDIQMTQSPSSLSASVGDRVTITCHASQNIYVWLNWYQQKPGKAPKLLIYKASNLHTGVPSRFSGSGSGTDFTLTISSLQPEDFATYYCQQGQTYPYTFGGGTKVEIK
# method description: phage ELISA; biotinylated scFv on neutravidin plate; anti-M13-HRP;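 also: crude clonal phage supernatant added to wells pre-incubated with soluble CD28 protein or only blocking buffer, then washed, bound phage read out with an HRP-linked anti-M13 antibody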

binder | CD28 scFv signal
VTSCPTTMWNRCFS (on phage (pIII fusion)) [Phage-266 clonal phage peptide] | 1.22
MDWCPRHLWYECFN (on phage (pIII fusion)) [Phage-243 clonal phage peptide] | 2.41
MDWCPIHLWNECFN (on phage (pIII fusion)) [Phage-314 clonal phage peptide] | 2.35
MDWCPMFMWHECFN (on phage (pIII fusion)) [Phage-261 clonal phage peptide] | 2.23
MDWCPRYLWHECFD (on phage (pIII fusion)) [Phage-244 clonal phage peptide] | 2.07
MDWCPRDLWFACFA (on phage (pIII fusion)) [Phage-282 clonal phage peptide] | 2.66
MDWCPRDLWAMCFA (on phage (pIII fusion)) [Phage-285 clonal phage peptide] | 2.63
DSFCTWSAWQECGR (on phage (pIII fusion)) [Phage-269 clonal phage peptide] | 0.13
